- System: P388 leukemia ip, CD2F1 mice, survival T/C
- test-protocol: NCI In Vivo Anticancer Drug Screen. Data for tumor model P388 Leukemia (intraperitoneal) in CD2F1 (CDF1) mice
- reported-conditions: endpoint: median survival time; dose: 200.0 mg/kg/injection; schedule: Q01DX009 (ip); vehicle: saline; higher = longer survival
Toxic doses and inconclusive results are not listed.
endpoint-label: T/C

- molecule: "COc1ccc(/C(Cc2ccccc2)=N/NS(=O)(=O)c2ccc(C)cc2)cc1"
  T/C: "98 % of control"
- molecule: "CCOP(=O)(OCC)C1OCC(O)C(C2OC(P(=O)(OCC)OCC)OCC2O)O1 (centres undefined)"
  T/C: "112 % of control"
- molecule: "NC(=O)c1ccccc1NC(=O)CCCC(=O)O"
  T/C: "97 % of control"

Next item in the queue.
-- ask Fill in the blank: the reported T/C of "C=CCc1ccc(OC)c(O)c1C(=O)OCC" is ____.
-- reply 95 % of control

====

Let's look at some compounds and their measured T/C.
- Tested on: P388 leukemia ip, CD2F1 mice, survival T/C
- test-protocol: NCI In Vivo Anticancer Drug Screen. Data for tumor model P388 Leukemia (intraperitoneal) in CD2F1 (CDF1) mice
- reported-conditions: endpoint: median survival time; dose: 100.0 mg/kg/injection; schedule: Q01DX005 (ip); vehicle: Klucel (hydroxypropylcellulose) (HPC); higher = longer survival
- Experimental: The antitumor activity of compounds was measured in mice bearing transplantable tumors. Survival or tumor size were measured and the results are expressed as the measurement made in the treated group (T) divided by the measurement made in the vehicle treated control group (C). The tumor model used in this assay is P388 Leukemia (intraperitoneal) in CD2F1 (CDF1) mice
Inconclusive results and toxic doses are left out.

Field: example entries. Status: answers known.
- compound: "CC(C)CC(NC(=O)CCNC(=O)OCc1ccccc1)C(=O)O (stereo not given)"
  endpoint-label: "T/C"
  result: "101 % of control"
- compound: "Nc1nc2ncc(CCCl)cc2c(=O)[nH]1"
  endpoint-label: "T/C"
  result: "123 % of control"
- compound: "CC(=O)N1C(CO)C(O)C(O)C1n1cnc2c(N)ncnc21 (stereo not given)"
  endpoint-label: "T/C"
  result: "100 % of control"
- compound: "CC1(C)OC2(C)CCC1C1C2N1C(=O)C(c1ccccc1)c1ccccc1 (stereo not given)"
  endpoint-label: "T/C"
  result: "100 % of control"
- compound: "O=C(N/N=C/c1ccccn1)c1ccccc1[O-].O=C(N/N=C/c1ccccn1)c1ccccc1[O-].[Co+2]"
  endpoint-label: "T/C"
  result: "117 % of control"
- compound: "CC1CCC(OC(=O)NCCCl)CC1 (stereo not given)"
  endpoint-label: "T/C"
  result: "96 % of control"
- compound: "CCCCCCCCCCOc1cc2c(=O)c(C(=O)OCC)c[nH]c2cc1OCC"
  endpoint-label: "T/C"
  result: "98 % of control"
- compound: "Cc1cc(C(O)(C(F)(F)F)C(F)(F)F)c2c(c1)C(C(F)(F)F)(C(F)(F)F)OC(C)(C)N2"
  endpoint-label: "T/C"
  result: "100 % of control"
- compound: "OCC(O)c1c(-c2ccccc2)c(-c2ccccc2)c2n1CCC2 (stereo not given)"
  endpoint-label: "T/C"
  result: "93 % of control"

-- ask Which T/C reading was recorded for the compound O=CC(C(=O)c1ccccc1[N+](=O)[O-])c1ccccc1 (stereo not given) ?
-- reply 104 % of control

====

- System: P388 leukemia ip, CD2F1 mice, survival T/C
- test-protocol: NCI In Vivo Anticancer Drug Screen. Data for tumor model P388 Leukemia (intraperitoneal) in CD2F1 (CDF1) mice
- reported-conditions: endpoint: median survival time; dose: 50.0 mg/kg/injection; schedule: Q04DX002 (ip); vehicle: saline with Tween-80; higher = longer survival
Inconclusive results and toxic doses are left out.
endpoint-label: T/C

-- ask Give the reported T/C for "O=C(CS(=O)(=O)O)c1ccccc1" (system: P388 leukemia ip, CD2F1 mice, survival T/C).
-- reply 106 % of control

-- ask Missing value: T/C, P388 leukemia ip, CD2F1 mice, survival T/C, entry "CCCCN=C(N)N/N=C/c1c2ccccc2c(C)c2ccccc12" . Fill in?
-- reply 104 % of control

-- ask State its T/C on P388 leukemia ip, CD2F1 mice, survival T/C: "O=C1CCCC2=C1c1cc3c(cc1CCN2)OCO3"
-- reply 96 % of control

-- ask Return T/C measured with P388 leukemia ip, CD2F1 mice, survival T/C given this compound: "CN=C(N)N/N=C(\c1ccccc1)c1cc(Cl)c(O)c(Cl)c1"
-- reply 100 % of control

-- ask Form: Entry = "COC(=O)C(C(=O)OC)=C(NS(=O)(=O)c1ccc(C)cc1)SC" | System = P388 leukemia ip, CD2F1 mice, survival T/C | T/C = ____
-- reply 109 % of control

====

- System: P388 leukemia ip, CD2F1 mice, survival T/C
- test-protocol: NCI In Vivo Anticancer Drug Screen. Data for tumor model P388 Leukemia (intraperitoneal) in CD2F1 (CDF1) mice
- reported-conditions: endpoint: median survival time; dose: 200.0 mg/kg/injection; schedule: Q01DX001 (ip); vehicle: saline with Tween-80; higher = longer survival
Toxic doses and inconclusive results are not listed.
Below, each entry is listed with its recorded T/C.

Worked cases, T/C given:
- compound: "CN(CC(=O)O)c1ccc(/C=C/c2ccnc3ccccc23)cc1"
  result: "103 % of control"
- compound: "CC(Nc1ccc(S(=O)(=O)Nc2ncccn2)cc1)c1ccc2cccnc2c1O (stereo not drawn)"
  result: "98 % of control"

-- ask Item under review: "CCC(=O)Oc1ccc(N=Nc2ccc(O)c(/C=N\NC(=O)CNc3ccccc3)c2)cc1" . Reported T/C?
-- reply 86 % of control

-- ask I would be grateful if you could share the reported T/C for "Nc1ncc(CCCCc2ccccc2)c(=O)[nH]1" .
-- reply 104 % of control

-- ask Consider the compound shown here: "CC(C)(F)c1nc2cc3ccccc3cc2[nH]c1=O" What is its recorded T/C?
-- reply 90 % of control

====

- System: P388 leukemia ip, CD2F1 mice, survival T/C
- test-protocol: NCI In Vivo Anticancer Drug Screen. Data for tumor model P388 Leukemia (intraperitoneal) in CD2F1 (CDF1) mice
- reported-conditions: endpoint: median survival time; dose: 200.0 mg/kg/injection; schedule: Q01DX005 (ip); vehicle: saline with Tween-80
Toxic doses and inconclusive results are not listed. The calls were made as follows: active = survival T/C of 150% or more; inactive = T/C below 125% in these data.
# output must be one of true (1) for active, false (0) for inactive

Previously resolved entries follow.
- molecule: "C=CCc1ccccc1NC(C)C(=O)OCC (stereo unspecified)"
  subject-of-test: "P388 leukemia ip, CD2F1 mice, survival T/C"
  class-label: "false (0)"
- molecule: "O=C1Cn2c(c3ccccc3nc2=O)N1"
  subject-of-test: "P388 leukemia ip, CD2F1 mice, survival T/C"
  class-label: "false (0)"

-- ask Check the results log: what was the call for "Cc1nnc(-n2nc(-c3ccc(Cl)cc3)cc2N)[nH]c1=O" ?
-- reply false (0)

-- ask Kindly provide the recorded test outcome for the following molecule: "CSc1nc(SC)c2cn(Cc3ccccc3)nc2n1"
-- reply false (0)

-- ask Fill in: this test's call for "CC1=C(C)C(=O)C(C(C)(C)CC(=O)N(C)/N=N/c2nc[nH]c2C(N)=O)=C(C)C1=O" is ___
-- reply true (1)

-- ask Each molecule tested received a call. Report the one for "CCCCCOc1ccc(C(=O)Oc2ccc(N=Nc3nccs3)cc2)cc1" .
-- reply false (0)

====

Below: a set of entries, each annotated with reported T/C.
- Test system: P388 leukemia ip, CD2F1 mice, survival T/C
- test-protocol: NCI In Vivo Anticancer Drug Screen. Data for tumor model P388 Leukemia (intraperitoneal) in CD2F1 (CDF1) mice
- reported-conditions: endpoint: median survival time; dose: 200.0 mg/kg/injection; schedule: Q01DX009 (ip); vehicle: saline; higher = longer survival
Toxic doses and inconclusive results are not listed.

Recorded results for 5 compounds are shown here.
- compound: "O=C(O)c1c[nH]c2cc(OCCOc3ccccc3)ccc2c1=O"
  result: "100 % of control"
- compound: "CCCCCCCCOC(=O)NCCCCC(N)C(=O)O (stereo unspecified)"
  result: "103 % of control"
- compound: "Cc1ccc(OS(=O)(=O)NC(=O)NCc2ccco2)cc1"
  result: "105 % of control"
- compound: "CC(C)=CCCC(C)CCC1NC(C(=O)O)CS1 (stereo unspecified)"
  result: "95 % of control"
- compound: "C1CCN(c2c3c(nc4nnnn24)CCC3)CC1"
  result: "90 % of control"

Moving on to another compound below.
-- ask Bench note: what T/C did "Cc1onc(-c2ccccc2)c1C(=O)N/N=C/c1cc(Cl)cc(Cl)c1O" show?
-- reply 99 % of control
